# method: AUC in female beagle dog at 1.2 umol/kg, po
# Type: ADME, organism-based, Canis lupus familiaris
# run conditions: plasma
property name: AUC (µM·h)

- smiles text: "O=C(N[C@H]1C2CC3CC1C[C@](O)(C3)C2)c1cnc(N[C@H]2CCOC2)nc1C1CCCC1"
  test value: 0.42
- smiles text: "O=C(N[C@H]1C2CC3CC1C[C@](O)(C3)C2)c1cnc(NC2CCOCC2)nc1C1CCC1"
  test value: 0.16

----------
# assayed target: 11-beta-hydroxysteroid dehydrogenase 1 (Mus musculus, UniProt P50172)
# Sequence (P50172 whole entry): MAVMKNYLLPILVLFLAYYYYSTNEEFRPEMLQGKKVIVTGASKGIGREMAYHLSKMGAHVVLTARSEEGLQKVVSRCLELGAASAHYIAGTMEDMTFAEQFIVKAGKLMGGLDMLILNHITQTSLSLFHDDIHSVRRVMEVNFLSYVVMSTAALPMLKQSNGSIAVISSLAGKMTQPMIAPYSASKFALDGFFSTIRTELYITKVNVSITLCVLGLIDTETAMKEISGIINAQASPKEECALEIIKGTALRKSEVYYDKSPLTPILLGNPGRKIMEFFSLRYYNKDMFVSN
# method: Inhibition of mouse 11beta-HSD1 by HTRF assay
Listed here: items and their measured IC50.

- smiles text: "O=C(N[C@H]1C2CC3CC1C[C@](O)(C3)C2)c1cnc(NC2CCOCC2)nc1C1CC1"
  IC50 / nM: 22
- smiles text: "C[C@H](O)CNc1ncc(C(=O)N[C@H]2C3CC4CC2C[C@](O)(C4)C3)c(C2CCCC2)n1"
  IC50 / nM: 42
- smiles text: "O=C(N[C@H]1C2CC3CC1C[C@](O)(C3)C2)c1cnc(N[C@H]2CCNC2=O)nc1C1CCCC1"
  IC50 / nM: 55
- smiles text: "O=C(N[C@H]1C2CC3CC1C[C@](O)(C3)C2)c1cnc(N[C@H]2CCOC2)nc1C1CCCC1"
  IC50 / nM: 32
